testTarget: T1, Human PCSK9 Alexa Fluor 647 (human, UniProt Q8NBP7 31-692, limits assumed, Alexa Fluor 647 label (site not stated))
T1 construct: Labelled tracer of the TR-FRET assay, 16 nM stock; also called proprotein convertase subtilisin/kexin type 9
T1 sequence (Q8NBP7 31-692 limits assumed): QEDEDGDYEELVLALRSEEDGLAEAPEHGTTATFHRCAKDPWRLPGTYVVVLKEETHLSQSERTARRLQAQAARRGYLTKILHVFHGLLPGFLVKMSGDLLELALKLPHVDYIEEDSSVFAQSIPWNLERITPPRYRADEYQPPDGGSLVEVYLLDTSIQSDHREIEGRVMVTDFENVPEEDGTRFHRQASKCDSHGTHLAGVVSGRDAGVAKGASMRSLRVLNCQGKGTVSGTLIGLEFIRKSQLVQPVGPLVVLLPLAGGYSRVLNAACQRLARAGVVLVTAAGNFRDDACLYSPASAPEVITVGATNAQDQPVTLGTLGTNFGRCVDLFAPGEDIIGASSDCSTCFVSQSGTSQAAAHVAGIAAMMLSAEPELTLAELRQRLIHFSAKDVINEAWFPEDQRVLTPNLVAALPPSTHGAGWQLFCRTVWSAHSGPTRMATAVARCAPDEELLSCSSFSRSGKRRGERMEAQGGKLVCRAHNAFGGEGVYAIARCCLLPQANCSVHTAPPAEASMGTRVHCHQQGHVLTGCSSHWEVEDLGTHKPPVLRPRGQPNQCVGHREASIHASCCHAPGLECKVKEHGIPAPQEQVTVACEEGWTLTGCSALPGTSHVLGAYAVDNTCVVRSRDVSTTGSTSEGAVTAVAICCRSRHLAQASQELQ
experimentNotes: TR-FRET competition: PCSK9-Alexa Fluor 647 vs LDLR ECD-Eu kryptate
Bridge positions count the residues as written; N and C are the ends. Square brackets hold non-standard residues; d marks the D form. Bip = N[C@@H](Cc1ccc(-c2ccccc2)cc1)C(=O)O; Phe(3-F) = N[C@@H](Cc1cccc(F)c1)C(=O)O; NMeA = CN[C@@H](C)C(=O)O

{"columns": ["binder", "Maximum % inhibition [%]"],
 "data": [
  ["{CH2CO}-FVSTT[Bip][NMeA][Phe(3-F)][NMeA]DRPCG-NH2 (thioether N-13; SMILES CC(C)[C@@H]1NC(=O)[C@H](Cc2ccccc2)NC(=O)CSC[C@@H](C(=O)NCC(N)=O)NC(=O)[C@@H]2CCCN2C(=O)[C@H](CCCNC(=N)N)NC(=O)[C@H](CC(=O)O)NC(=O)[C@H](C)N(C)C(=O)[C@H](Cc2cccc(F)c2)NC(=O)[C@H](C)N(C)C(=O)[C@H](Cc2ccc(-c3ccccc3)cc2)NC(=O)[C@H]([C@@H](C)O)NC(=O)[C@H]([C@@H](C)O)NC(=O)[C@H](CO)NC1=O, also called 1-15; Ex. No. 1-15) [Ac*-F-V-S-T-T-B-(N-Me)A-(3-F)F-(N-Me)A-D-R-P-C*-G-NH2]", 53]
]}

// data source = patent US20220024981A1
